Here the recorded normalized growth is given for each entry.
protocolNotes: chemical genetic growth profiling, strain panel (AID 1159580);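 also: tested at 20 µM; growth read once vehicle control cultures reached saturation at 30 °C; 1 = growth at the plate median or of vehicle wells; lower values mean less growth of the strain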
runParameters: S. cerevisiae deletion strains, growth OD, locus YOR061W, strain CKA2, stronger effect = lower value
The campaign covered roughly 5,500 compounds. About 2,000 (36%) were called active. Another 18% or so got no clear call; they are omitted. This is one part of the list.
Just the number, please, no unit attached.

Here are 3 molecules together with their reported answers.
COc1ccc([C@H]2Oc3c(I)c(OC)cc(OC)c3C[C@@H]2O)cc1OC = 0.999
Oc1cc(O)c2c(c1)O[C@H](c1cc(O)c(O)c(O)c1)[C@H](O)C2 = 0.99
Cc1nn(C)c(C(=O)Sc2ccc(OC(F)(F)F)cc2)c1[N+](=O)[O-] = 0.95

Recorded normalized growth for COc1ccc(C(CC(=O)c2ccccc2)Sc2ccccc2N)cc1OC (stereo unspecified) , please?
0.934

Recorded normalized growth for Oc1cc(O)c2c(c1)O[C@H](c1ccc(O)c(O)c1)[C@@H](O)C2 , please?
0.97

Recorded normalized growth for CCCCCCCCC(=O)NCc1ccc(O)c(OC)c1 , please?
0.988

---

protocolNotes: chemical genetic growth profiling, strain panel (AID 1159580);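 also: tested at 20 µM; growth read once vehicle control cultures reached saturation at 30 °C; 1 = growth at the plate median or of vehicle wells; lower values mean less growth of the strain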
runParameters: S. cerevisiae deletion strains, growth OD, locus YGL248W, strain PDE1, stronger effect = lower value
The whole screen tested about 5,500 compounds, of which about 2,000 (36%) were called active. About 18% were inconclusive and are not listed. The list shows a part of the results.
endpoint: normalized growth

Here are 6 compounds together with their reported answers.
COc1ccc(-c2coc3cc(OC)ccc3c2=O)cc1 = 0.876 (active)
NC(=O)c1ccc[n+]([C@@H]2O[C@H](COP(=O)([O-])OP(=O)(O)OC[C@H]3O[C@@H](n4cnc5c(N)ncnc54)[C@H](OP(=O)(O)O)[C@@H]3O)[C@@H](O)[C@H]2O)c1 = 1.02 (inactive)
CCC(C)C(=O)OC1CC2(C)C(c3ccoc3)OC(=O)CC23OC2(C)OC34C(OC(=O)C(C)C)C3(O)C(OC(=O)C5(C)OC5C)C5(C)CC3(O)C(C)(C5C(=O)OC)C14O2 (configuration not stated) = 1.01 (inactive)
CN(C)CCN(Cc1ccccc1)c1ccccn1 = 1.01 (inactive)
COc1ccc(CN(CCN(C)C)c2ccccn2)cc1 = 0.999 (inactive)
COC(=O)C[C@H]1C2(C)CC34OC5(C)O[C@@]6([C@H](OC)C(OC(=O)C(C)C)[C@]7(C)C(/C(=C(/OC)C(C)C)C(=O)O[C@H]7c7ccoc7)[C@@]6(O5)[C@H](OC)[C@@]3(OC)C2OC(C)=O)[C@]14C (some centres not stated) = 1.01 (inactive)

Recorded normalized growth for CCC(C)C(=O)O[C@@H]1C[C@@]2(C)[C@H](c3ccoc3)OC(=O)CC23OC2(C)O[C@]14[C@]1(C)[C@@H](CC(=O)OC)C5(C)CC1(O)[C@](O)(C5OC(=O)C1(C)OC1C)[C@@H](OC(C)=O)[C@]34O2 (some centres not stated) , please?
1.01 (inactive)

Recorded normalized growth for COc1ccc(-c2coc3cc(O)ccc3c2=O)c(OC)c1O , please?
0.982 (inactive)

---

protocolNotes: chemical genetic growth profiling, strain panel (AID 1159580);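 also: tested at 20 µM; growth read once vehicle control cultures reached saturation at 30 °C; 1 = growth at the plate median or of vehicle wells; lower values mean less growth of the strain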
runParameters: S. cerevisiae deletion strains, growth OD, locus YHR094C, strain hxt1, stronger effect = lower value
Screen size: about 5,500 compounds; about 2,000 (36%) were called active. Another 18% or so got no clear call; they are omitted. The list shows a part of the results.
endpoint: normalized growth
Just the number, please, no unit attached.

Here are 6 molecules together with their reported answers.
CN(C)CCN(Cc1ccccc1)c1ccccn1 = 0.967
C=CCc1ccc(O)c(OC)c1 = 0.939
CN(C)CCN(Cc1cccs1)c1ccccn1 = 1.01
C=CCc1ccc(OC(=O)c2ccccc2)c(OC)c1 = 0.988
COc1cc([C@@H]2c3cc4c(cc3C(OC3O[C@@H]5COC(C)O[C@H]5[C@H](O)[C@H]3O)C3COC(=O)[C@@H]32)OCO4)cc(OC)c1O (some centres not stated) = 0.995
CC(C)NCC(O)COc1cccc2[nH]ccc12 (configuration not stated) = 0.977

Kindly consider the entry below.
Recorded normalized growth for Nc1nc(=S)c2[nH]cnc2[nH]1 , please?
0.998
